Experiment: Positive allosteric modulation of rat alpha1beta2gamma2S GABAA receptor expressed in Xenopus laevis oocytes assessed as potentiation of GABA-induced chloride current by two-microelectrode voltage clamp electrophysiology
Format: cell-based
measure: EC50 (µM)

>>> observed_value("CC(C)(O)CCc1cc2c(cc1O)O[C@H]1c3ccc(O)cc3OC[C@@H]21")
8.6
>>> observed_value("CC(C)=CCc1cc2c(cc1O)O[C@H]1c3ccc(O)c(O)c3OC[C@@H]21")
18.8
>>> observed_value("CC(C)=CCc1c(O)ccc2c(=O)c(-c3ccc(O)cc3O)coc12")
2.8
>>> observed_value("CC1(C)C=Cc2cc3c(cc2O1)O[C@H]1c2ccc(O)cc2OC[C@@H]31")
40.7

###

%max: recorded values
Species: Rattus norvegicus
Test: Positive allosteric modulation of rat alpha1beta2gamma2S GABAA receptor expressed in Xenopus laevis oocytes assessed as potentiation of GABA-induced chloride current at 100 uM by two-microelectrode voltage clamp electrophysiology relative to control
Type: cell-based
measure: %max (%)

>>> observed_value("CC(C)=CCc1c(O)c(CCC(C)(C)O)cc2c1O[C@H](c1ccc(O)cc1)[C@@H](O)C2=O")
-26
>>> observed_value("CO/C(=C\\c1ccccc1)C(=O)c1ccc(O)cc1O")
228
>>> observed_value("CC(C)=CCc1cc2c(c(CC=C(C)C)c1O)O[C@H](c1ccc(O)cc1)[C@@H](O)C2=O")
287
>>> observed_value("Oc1ccc2c(c1)OC[C@H]1c3cc4c(cc3O[C@@H]21)OCO4")
238
>>> observed_value("CC(C)=CCc1c(O)ccc2c1OCC(c1ccc(O)cc1O)C2=O (stereo not given)")
361

###

Species on record: Rattus norvegicus
Assay: Positive allosteric modulation of rat alpha1beta2gamma2S GABAA receptor expressed in Xenopus laevis oocytes assessed as potentiation of GABA-induced chloride current at 100 uM by two-microelectrode voltage clamp electrophysiology relative to control
Type: cell-based
Rule: t for %max not less than 300%, f for anything less.

>>> class_assignment("CO[C@H](Cc1ccccc1)C(=O)c1ccc(O)cc1O")
"f"
>>> class_assignment("O=C1c2ccc(O)cc2O[C@H](c2ccccc2)[C@H]1O")
"f"
>>> class_assignment("CC1(C)C=Cc2cc3c(cc2O1)O[C@H]1c2ccc(O)cc2OC[C@@H]31")
"t"
>>> class_assignment("Oc1ccc2c(c1)OC[C@H]1c3cc4ccoc4cc3O[C@@H]21")
"f"
>>> class_assignment("CC(C)(O)CCc1cc2c(cc1O)O[C@H]1c3ccc(O)cc3OC[C@@H]21")
"t"
>>> class_assignment("CC(C)=CCc1cc2c(cc1O)OCC(c1ccc(O)cc1O)C2=O (stereo not given)")
"f"
>>> class_assignment("CC(C)=CCc1cc2c(cc1O)O[C@H]1c3ccc(O)c(O)c3OC[C@@H]21")
"t"
>>> class_assignment("CC(C)=CCc1c(O)ccc2c1O[C@H](c1ccc(O)cc1)[C@@H](O)C2=O")
"f"
>>> class_assignment("CC(C)=CCc1c(O)ccc2c(=O)c(-c3ccc(O)cc3)coc12")
"f"
>>> class_assignment("CC(C)=CCc1c(O)ccc2c(=O)c(-c3ccc(O)cc3O)coc12")
"t"

###

Emax: recorded values
Organism: Rattus norvegicus
Assay: Positive allosteric modulation of rat alpha1beta2gamma2S GABAA receptor expressed in Xenopus laevis oocytes assessed as potentiation of GABA-induced chloride current by two-microelectrode voltage clamp electrophysiology relative to control
Format: cell-based
measure: Emax (%)

>>> observed_value("CC(C)=CCc1cc2c(cc1O)O[C@H]1c3ccc(O)c(O)c3OC[C@@H]21")
491
>>> observed_value("CC(C)(O)CCc1cc2c(cc1O)O[C@H]1c3ccc(O)cc3OC[C@@H]21")
640
>>> observed_value("CC(C)=CCc1c(O)ccc2c(=O)c(-c3ccc(O)cc3O)coc12")
553
>>> observed_value("CC1(C)C=Cc2cc3c(cc2O1)O[C@H]1c2ccc(O)cc2OC[C@@H]31 [ISONEORAUTENOL]")
771
